- System: UACC-257 melanoma
- MEASUREMENT_PROTOCOL: NCI tumour cell line growth inhibition, 48 h
Recorded TGI values for a group of compounds are listed next.

# COMPOUND, TGI
data = [
    ("O=C1C(Cl)C(c2ccc(O)cc2)N1n1cnc2ccccc2c1=O (centres undefined)", "> 100 µM"),
    ("CCCCCCCCCCCCCCCC(=O)NS(=O)(=O)OC[C@H]1O[C@@H](n2cnc3c(N)ncnc32)[C@H](O)[C@@H]1O", "1.47 µM"),
    ("CC[C@]12C=CCN3CC[C@@]4(c5ccc(OC)cc5N(C)[C@H]4[C@@](O)(C(=O)OC)[C@@H]1OC(=O)CCC(=O)O[C@H]1CC[C@H]4[C@@H]5CCC6=CC(=O)CC[C@@H]6[C@H]5CC[C@]14C)[C@@H]32", "> 50 µM"),
    ("CCOC(=O)c1sc2nc(SC)nc3c2c1NC(=O)CN3c1ccc(F)cc1", "> 100 µM"),
]
